test system: PPARg:RXRa IVT, anti-PPARg (NR concentration 270 nM, RXRa partner concentration 90 nM); assay: PBM binding z-score (relative to random genomic background probes); higher = stronger binding; sequences stand for … in GC…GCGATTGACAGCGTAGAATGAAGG
For each record, write down the corresponding PBM binding z-score.
Numbers only.

• CCTACTGGCCCACGAAAGGTCATTGATTCAGTGA = 0.861
• CCGAGTTGGTTATGGGGCATTCAGGCAACGGTGA = 0.993
• TCGAATAGGTTACCAATGGGGCATTCAGCTTTCT = 1.12
• TAGCCTAGGTCATTCTGGGGCCAGTATAGAAAGC = 2.77
• TCTTGTAGATCAAAGGTTAATAAAGCCGAAGCCT = 3.56

Each sequence below has a recorded value; state its PBM binding z-score.
1. GCGACTGGGGCATCAGGAGGTTACCATAACTTAA
2. CCTGACAGGTGAGAAGGTAACTCAGCCTCGATTA
3. TCGAGTAGGTTACCAATGGGGCACTCAGCTTTCT
4. TGAACGAGGTTAAAGATCAGGGAACGTGGCGTCG

Found:
1. 3.59
2. 0.913
3. 3.08
4. 2.81

For each of the sequences below, state PBM binding z-score.
1. TCTTGTAGATCAAGCAGGTTAAGAAGGCCTGAGT
2. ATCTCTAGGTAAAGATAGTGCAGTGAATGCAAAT
3. ATATGTAGGTTCTCGGGTCATTCAGTTTGCGCAT
4. CCGTCTGGGGCATAAGGTTACCATAAGCCAGCCC
5. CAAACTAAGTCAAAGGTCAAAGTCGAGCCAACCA
6. CCGACTGGAGCAAGGTTACCATAACGCACAGCCA
7. CCCGAAAGGTCGTGCTCAGGTGAGTATACCAAAC

Found:
[0.43, 1.62, 4.65, 1.84, 6.79, 0.76, 1.75]

Could you tell me PBM binding z-score for each of these sequences? They are listed below.
1. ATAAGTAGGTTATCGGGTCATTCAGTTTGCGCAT
2. TCTAGCAGGCCAGAGGGACACTCAAGAGGTACGG
3. ATCTATAGGTAAAGATAGTTCAGTGAATGCAAAT
4. CCGACTGGCGCAAAGGTTACCATACTCAGTACGA
5. CGTCCAAGGTCAGAGACGTCAGTGAATGCCGAGT

Found:
1: 7.8; 2: -0.183; 3: 1.29; 4: 2.5; 5: 1.74

Data origin, for the record: the supplement of paper PMC6555819
